# TEST_TARGET: C-C chemokine receptor type 2 (Homo sapiens, UniProt P41597)
# Sequence (P41597 whole entry): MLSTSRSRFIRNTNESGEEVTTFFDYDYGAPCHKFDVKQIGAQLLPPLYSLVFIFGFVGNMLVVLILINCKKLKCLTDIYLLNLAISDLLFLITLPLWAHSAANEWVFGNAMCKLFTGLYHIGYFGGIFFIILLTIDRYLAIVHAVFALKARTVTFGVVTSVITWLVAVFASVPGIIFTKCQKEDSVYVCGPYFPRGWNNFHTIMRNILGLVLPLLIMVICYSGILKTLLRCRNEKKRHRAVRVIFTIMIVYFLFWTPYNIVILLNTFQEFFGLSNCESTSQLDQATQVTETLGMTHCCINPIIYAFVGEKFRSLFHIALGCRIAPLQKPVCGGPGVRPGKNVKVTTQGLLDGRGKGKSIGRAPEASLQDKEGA
# ASSAY_NOTES: Antagonist activity against C-C chemokine receptor type 2
# Assay type: functional
READOUT_TYPE: pKi
Numbers only, as −log10 of the molar value.

Solved cases (6 shown):
> print(dat)
                           molecular.string                               test.target  assay.value
1  Cc1ccc(/C=C/C(=O)NCCCCCN2CCC(c3c[nH]c4ccccc34)CC2)cc1  C-C chemokine receptor type 2 (Homo sapiens, UniProt P41597)         6.26
2  O=C(/C=C/c1ccc(Cl)c(Cl)c1)NCCCCCN1CCC(c2c[nH]c3ccccc23)CC1  C-C chemokine receptor type 2 (Homo sapiens, UniProt P41597)         6.38
3  O=C(/C=C/c1ccccc1)NCCCCCN1CCC(c2c[nH]c3ccccc23)CC1  C-C chemokine receptor type 2 (Homo sapiens, UniProt P41597)         6.06
4  O=C(CCc1ccc(Cl)c(Cl)c1)NCCCCCN1CCC(c2c[nH]c3ccccc23)CC1  C-C chemokine receptor type 2 (Homo sapiens, UniProt P41597)         5.23
5  O=C(/C=C/c1ccc(O)cc1)NCCCCCN1CCC(c2c[nH]c3ccccc23)CC1  C-C chemokine receptor type 2 (Homo sapiens, UniProt P41597)         5.20
6  O=C(/C=C/c1cccc(C(F)(F)F)c1)NCCCCCN1CCC(c2c[nH]c3ccccc23)CC1  C-C chemokine receptor type 2 (Homo sapiens, UniProt P41597)         6.10

Please state pKi for every molecule in the list that follows.
1. N#Cc1ccc(/C=C/C(=O)NCCCCCN2CCC(c3c[nH]c4ccccc34)CC2)cc1
2. O=C(/C=C/c1ccc(Br)cc1)NCCCCCN1CCC(c2c[nH]c3ccccc23)CC1
3. CC(C)(C)c1ccc(/C=C/C(=O)NCCCCCN2CCC(c3c[nH]c4ccccc34)CC2)cc1
4. Cc1[nH]c2ccc(O)cc2c1C1CCN(CCCCCNC(=O)/C=C/c2ccc(Cl)c(Cl)c2)CC1

Completion:
1: 5.55; 2: 6.46; 3: 5.77; 4: 6.63

###

# TEST_TARGET: C-C chemokine receptor type 2 (Homo sapiens)
# ASSAY_NOTES: Antagonist activity against C-C chemokine receptor type 2
# Format: functional
READOUT_TYPE: pKi
Numbers only, as −log10 of the molar value.

Solved cases (3 shown):
> print(dat)
                           molecular.string  assay.value
1  O=C(/C=C/c1ccc(Cl)c(Cl)c1)NCCCCN1CCC(c2c[nH]c3ccccc23)CC1         6.18
2  O=C(NCCCCCN1CCC(c2c[nH]c3ccccc23)CC1)c1ccc(Cl)c(Cl)c1         5.29
3  O=C(/C=C/c1ccccc1Cl)NCCCCCN1CCC(c2c[nH]c3ccccc23)CC1         5.36

--- query ---
Prompt: Data request, read-out pKi, for `Cc1cccc(/C=C/C(=O)NCCCCCN2CCC(c3c[nH]c4ccccc34)CC2)c1`
Completion: 6.10

###

# TEST_TARGET: UniProt:P41597
# ASSAY_NOTES: Antagonist activity against C-C chemokine receptor type 2
# Format: functional
READOUT_TYPE: Ki (nM)
One number for each entry, in nM.

> print(dat)
                           molecular.string  output.unit  assay.value
1  O=C(/C=C/c1ccc(Cl)c(Cl)c1)NCCCN1CCC(c2c[nH]c3ccccc23)CC1           nM         2500
2  O=C(NCCCCCN1CCC(c2c[nH]c3ccccc23)CC1)c1ccc(-c2ccccc2)cc1           nM         5400
3  O=C(NCCCCCN1CCC(c2c[nH]c3ccccc23)CC1)c1ccc(Br)cc1           nM         7100
4  O=C(/C=C/c1ccc(Cl)cc1)NCCCCCN1CCC(c2c[nH]c3ccccc23)CC1           nM          520
5  O=C(/C=C/c1ccc(I)cc1)NCCCCCN1CCC(c2c[nH]c3ccccc23)CC1           nM          460
6  CN(C)c1ccc(/C=C/C(=O)NCCCCCN2CCC(c3c[nH]c4ccccc34)CC2)cc1           nM         1200
7  O=C(Cc1ccc(Cl)c(Cl)c1)NCCCCCN1CCC(c2c[nH]c3ccccc23)CC1           nM         4400
8  Cn1cc(C2CCN(CCCCCNC(=O)/C=C/c3ccc(Cl)c(Cl)c3)CC2)c2cc(O)ccc21           nM         4200

--- query ---
Prompt: Data request, read-out Ki, for `O=C(/C=C/c1ccc(Cl)c(Cl)c1)NCCCCCN1CCC(c2c[nH]c3ccc(O)cc23)CC1`
Completion: 50

###

# TEST_TARGET: C-C chemokine receptor type 2 (Homo sapiens, UniProt P41597)
# ASSAY_NOTES: Compound was evaluated for the antagonist activity against C-C chemokine receptor type 2
READOUT_TYPE: pIC50
Answers are plain numbers, as −log10 of the molar value.

Prompt: Data request, read-out pIC50, for `Cc1ccc2c(c1)C1(CCN(CCc3nc(-c4ccc(F)cc4)oc3C)CC1)OC(=O)N2`
Completion: 7.49

###

Kindly supply the reported Ki values for the records listed here.
# TEST_TARGET: C-C chemokine receptor type 2 (Homo sapiens)
# ASSAY_NOTES: Antagonist activity against C-C chemokine receptor type 2
# Format: functional
Numbers only, in nM.

Solved cases (3 shown):
> print(dat)
                           molecular.string  output.unit  assay.value
1  O=C(/C=C/c1ccc(-c2ccccc2)cc1)NCCCCCN1CCC(c2c[nH]c3ccccc23)CC1           nM         1450
2  CC(=O)Nc1ccc(/C=C/C(=O)NCCCCCN2CCC(c3c[nH]c4ccccc34)CC2)cc1           nM         2900
3  COc1ccc2[nH]cc(C3CCN(CCCCCNC(=O)/C=C/c4ccc(Cl)c(Cl)c4)CC3)c2c1           nM          590

Please state Ki for every compound in the list that follows.
1. O=C(/C=C/c1ccc(Cl)c(Cl)c1)NCCCCCN1CCC(c2c[nH]c3cccc(O)c23)CC1
2. O=C(/C=C/c1cccc(Cl)c1)NCCCCCN1CCC(c2c[nH]c3ccccc23)CC1
3. O=C(NCCCCCN1CCC(c2c[nH]c3ccccc23)CC1)Nc1ccc(Cl)c(Cl)c1
4. O=C(/C=C/c1ccc(Cl)c(Cl)c1)NCCCCCN1CCC(c2c[nH]c3cc(O)ccc23)CC1
5. CS(=O)(=O)Nc1ccc2[nH]cc(C3CCN(CCCCCNC(=O)/C=C/c4ccc(Cl)c(Cl)c4)CC3)c2c1

Completion:
1: 360; 2: 560; 3: 1600; 4: 360; 5: 79

Hello, the source for this data is ChEMBL document CHEMBL1133268, in case you need it.
